Values compiled from the supplement of paper PMC5412046.

Test system: SB.mhdgc-1
Test: AC50 for growth inhibition (viability) (log10 M); higher = less potent
Settings: SB.mhdgc-1 (hereditary c.1380delA CDH1 gastric cancer)
Where a name gives a salt, the structure may show the parent alone.
Consider the following compounds; for each one, report its AC50 for growth inhibition (log10 M).
Answers are plain numbers.

Known AC50 for growth inhibition (log10 M) results, listed for orientation:
CN(C)c1ccc2nc3ccc(N(C)C)cc3[s+]c2c1 [Methylene blue] ... -5.83
O=C(Nc1cc(C(F)(F)F)cc(C(F)(F)F)c1)c1cc(Cl)ccc1O [IMD-0354] ... -5.78
Nc1ccc(C(=O)c2cc3c(ccc4ccccc43)[nH]2)cc1 [IPFK2] ... -4.73
CC(C)Nc1cc(C(F)(F)F)cc2nc(NC(=O)c3cccnc3)nn12 [S-99] ... -5.28

Hi, could you look up AC50 for growth inhibition (log10 M) for each item in my list?
1. CC(C)(C(=O)NCC(F)(F)C(F)(F)F)C(=O)N[C@@H]1C(=O)Nc2ccccc2-c2ccccc21
2. NC/1=N/[C@]2(COC[C@H]2CS1)C3=CC(=CC=C3F)NC(=O)C4=NC=C(F)C=C4
3. CCN1CCN(c2ccc(Nc3cc(N(C)C(=O)Nc4c(Cl)c(OC)cc(OC)c4Cl)ncn3)cc2)CC1 [BGJ-398]
4. CC(C)=CCC/C(C)=C/CC/C(C)=C/CSc1ccccc1C(=O)O [Salirasib]
5. CCN(CC)CCOc1ccc(/C(=C(\Cl)c2ccccc2)c2ccccc2)cc1 [Clomifene citrate]
6. Cc1ccc(C)c(OCCCC(C)(C)C(=O)O)c1 [Gemfibrozil]
7. CN(C)CCCN1c2ccccc2CCc2ccc(Cl)cc21 [Clomipramine hydrochloride]

A)
1: -4.83; 2: -5.93; 3: -4.58; 4: -6.43; 5: -4.68; 6: -4.78; 7: -6.13

* * *

Tested on: SB.mhdgc-1
Experiment: viability at highest tested concentration (MAXR) relative to DMSO; higher = less cytotoxic
Details: SB.mhdgc-1 (hereditary c.1380delA CDH1 gastric cancer)
Counter-ions that a name gives are not always drawn.
Doc: threshold 70% (exclusive). Items with viability beneath it return 1; others return -1.

Recorded results for 10 compounds are shown here.
CC1(C)CC(O)CC(C)(C)N1[O] [Tempol] (top concentration 46.0829 µM) ... -1
CCC(C)SSc1ncc[nH]1 (configuration not stated) [PX-12] (top concentration 46.0829 µM) ... 1
Cc1[nH]c(/C=C2\C(=O)Nc3ccc([S+](=O)([O-])N(C)c4cccc(Cl)c4)cc32)c(C)c1C(=O)N1CCN(C)CC1 [SU-MI-2] (top concentration 46.0829 µM) ... -1
Oc1cc(-c2nc(-c3ccccc3)[nH]c2-c2ccncc2)ccc1Cl (top concentration 46.0829 µM) ... 1
CNC(=O)c1cc(Oc2ccc(NC(=O)Nc3ccc(Cl)c(C(F)(F)F)c3)c(F)c2)ccn1 [Regorafenib] (top concentration 46.0829 µM) ... 1
O=C(O)C(=O)Nc1cccc(-c2nnn[nH]2)c1 [Acitazanolast] (top concentration 46.0829 µM) ... -1
CCOc1cc(N2CCC(O)CC2)ccc1Nc1ncc2c(n1)N(C)c1ccccc1C(=O)N2C [XMD8-92] (top concentration 46.0829 µM) ... 1
N#C[C@H](O[C@@H]1O[C@H](CO[C@@H]2O[C@H](CO)[C@@H](O)[C@H](O)[C@H]2O)[C@@H](O)[C@H](O)[C@H]1O)c1ccccc1 [Amygdalin] (top concentration 46.0829 µM) ... 1
CC(NC(C)(C)C)C(=O)c1cccc(Cl)c1 (configuration not stated) [Bupropion hydrochloride] (top concentration 46.0829 µM) ... -1
COc1ncc(-c2ccc3nccc(-c4ccnnc4)c3c2)cc1N[S+](=O)([O-])c1ccc(F)cc1F (top concentration 46.0829 µM) ... 1

Q) In plain terms, does COc1ccc(C2Sc3ccccc3N(CCN(C)C)C(=O)C2OC(C)=O)cc1 (configuration not stated) [Diltiazem hydrochloride] (top concentration 46.0829 µM) come in under 70% for viability?
A) -1

Q) Lab note: confirm whether the reported viability for this compound is below 70%, equality not counting. compound: CON(C)C(=O)N1\N=C(/S[C@]1(CCCN)C2=CC=CC=C2)C3=CC(=CC=C3F)F [ARRY-520] (top concentration 46.0829 µM)
A) 1

Q) Answer whether the compound C/C=C(\C)C(=O)N[C@@H](c1ccccc1)[C@@H](O)C(=O)O[C@H]1C[C@@]2(O)[C@@H](OC(=O)c3ccccc3)[C@@H]3[C@]4(OC(C)=O)CO[C@@H]4C[C@H](O)[C@@]3(C)C(=O)[C@H](OC(C)=O)C(=C1C)C2(C)C [Cephalomannine] (top concentration 46.0829 µM) has viability strictly less than 70%
A) 1

Q) Please determine if Cc1cc(Nc2cc(CN3CCOCC3)c3nc(C)c(Cc4ccc(Cl)cc4F)n3n2)[nH]n1 [Gandotinib] (top concentration 46.0829 µM) is below 70% in terms of viability.
A) 1

Q) Lab note: viability threshold 70%. Does this compound come in strictly under it? CC(C)C1NC(=O)C(NC(=O)C2=C3\N=C\4/C(=C(C)\C(=O)\C(=C4C(=O)NC5C(C)OC(=O)C(C(C)C)N(C)C(=O)CN(C)C(=O)C6CCCN6C(=O)C(NC5=O)C(C)C)N)OC3=C(C)C=C2)C(C)OC(=O)C(C(C)C)N(C)C(=O)CN(C)C(=O)C7CCCN7C1=O (configuration not stated) [Actinomycin D] (top concentration 46.0829 µM)
A) 1
